All values here come from ChEMBL document CHEMBL5236643.

- target or test system: Peroxisome proliferator-activated receptor gamma (Homo sapiens, UniProt P37231)
- assay name: Inverse agonist activity at GST tagged human PPARgamma LBD (231 to 505 residues) expressed in Escherichia coli BL21(DE3) assessed as recruitment of fluorescein labeled corepressor NCOR2 Smrt-ID2 peptide to PPARgamma LBD incubated for 24 hrs by LanthaScreen TR-FRET assay
Please provide measured EC50 for the entries that follow.
A complete answer gives the number followed by the unit.

Enquiry: What reported EC50 corresponds to `O=C(NCc1ccc(F)c(F)c1)c1ccc(Cl)c(C(=O)Nc2ccccc2)c1` on Peroxisome proliferator-activated receptor gamma (Homo sapiens, UniProt P37231)?
Return: 1.75 µM

Enquiry: Same again, this time with `O=C(NCc1ccc(F)c(F)c1)c1cc(C(=O)Nc2ccccn2)c(Cl)cc1F`
Return: 0.11 µM

Enquiry: Repeat for the following molecule: `Cc1cccc(CNC(=O)c2ccc(Cl)c(C(=O)Nc3ccccc3)c2)c1`
Return: 3 µM

Enquiry: Another: `Cc1cccc(-c2nc3cc(NC(=O)c4cc(C(=O)NCc5ccc(F)c(F)c5)c(F)cc4Cl)ccc3o2)c1`
Return: 0.23 µM

###

- target or test system: Peroxisome proliferator-activated receptor gamma (Homo sapiens)
- Sequence (P37231 whole entry): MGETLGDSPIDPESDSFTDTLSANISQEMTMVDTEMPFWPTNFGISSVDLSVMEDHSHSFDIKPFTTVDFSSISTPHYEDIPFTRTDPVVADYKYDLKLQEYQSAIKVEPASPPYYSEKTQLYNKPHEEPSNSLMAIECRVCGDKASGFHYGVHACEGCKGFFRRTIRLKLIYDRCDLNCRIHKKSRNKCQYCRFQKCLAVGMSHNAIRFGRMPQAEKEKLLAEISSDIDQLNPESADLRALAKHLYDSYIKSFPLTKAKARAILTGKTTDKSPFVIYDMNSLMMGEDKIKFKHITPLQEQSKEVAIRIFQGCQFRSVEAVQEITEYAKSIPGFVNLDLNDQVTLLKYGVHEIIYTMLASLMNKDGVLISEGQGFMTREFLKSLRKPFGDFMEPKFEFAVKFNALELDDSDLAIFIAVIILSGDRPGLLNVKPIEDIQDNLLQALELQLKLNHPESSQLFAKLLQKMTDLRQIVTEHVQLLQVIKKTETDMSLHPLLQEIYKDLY
- assay name: Inverse agonist activity at human PPARgamma in human RT112/84 transfected with NLuc-fused FABP4 assessed as reduction in PPARgamma transactivation incubated for 6 to 18 hrs by Nano-Glo luciferase assay
- Format: cell-based
measured endpoint: IC50

Enquiry: What value of IC50 has been reported for the following compound? `Cc1cccc(CNC(=O)c2ccc(Cl)c(C(=O)Nc3ccccc3)c2)c1`
Return: > 5 µM

Enquiry: Entry `Cc1cc(C(=O)NCc2ccccc2)cc(C(=O)Nc2ccccc2)c1Cl` please
Return: > 5 µM

Enquiry: Moving on to `O=C(NCc1ccccc1)c1cc(Cl)cc(C(=O)Nc2ccccc2)c1`
Return: > 5 µM

Enquiry: Same question for `Cc1ccccc1NC(=O)c1cc(C(=O)NCc2ccccc2)c(F)cc1Cl` please.
Return: 0.038 µM

Enquiry: For `O=C(NCc1ccccc1)c1ccc(F)c(C(=O)Nc2ccccc2)c1` then?
Return: > 5 µM

Enquiry: Also `O=C(NCc1ccc(Cl)cc1)c1ccc(Cl)c(C(=O)Nc2ccccc2)c1` ?
Return: > 5 µM
